Reported pest or weed control at 31 g/ha values are given for each entry in this list.
Test system: giant foxtail (Setaria faberii)
Assay: Test A postemergence
Type: in vivo
Conditions: Setaria faberi, post-emergence, 240 h, Postemergence, 31 g ai/ha; visual injury after approx. 10 d; 0 to 100 scale, 0 no effect, 100 complete control; read-out: Plant response rating, Foxtail, Giant
Text: […]
observed_property: pest or weed control at 31 g/ha (%)

CSc1ccccc1NC(=O)[C@H]1C(=O)NC[C@@H]1c1ccc(C(F)(F)F)cn1 ... 0
CN1CC[C@H](c2cccc(OC(F)(F)F)c2)[C@@H](C(=O)Nc2cccc(Cl)c2F)C1=O ... 60
CSc1ccccc1NC(=O)[C@H]1C(=O)N(C)C[C@@H]1c1ccc(F)c(OC(C)C)c1 ... 0
CN1CC[C@@H](c2cccc(C(F)(F)F)c2)[C@H](C(=O)Nc2ccccc2F)C1=O ... 0
C/C=C/C1CNC(=O)C1C(=O)Nc1cccc(F)c1F (centres unmarked) ... 0

Cited source: patent US12077503B2
